- target-entity: Cytochrome P450 2C19 (Homo sapiens)
- Sequence (P33261 whole entry): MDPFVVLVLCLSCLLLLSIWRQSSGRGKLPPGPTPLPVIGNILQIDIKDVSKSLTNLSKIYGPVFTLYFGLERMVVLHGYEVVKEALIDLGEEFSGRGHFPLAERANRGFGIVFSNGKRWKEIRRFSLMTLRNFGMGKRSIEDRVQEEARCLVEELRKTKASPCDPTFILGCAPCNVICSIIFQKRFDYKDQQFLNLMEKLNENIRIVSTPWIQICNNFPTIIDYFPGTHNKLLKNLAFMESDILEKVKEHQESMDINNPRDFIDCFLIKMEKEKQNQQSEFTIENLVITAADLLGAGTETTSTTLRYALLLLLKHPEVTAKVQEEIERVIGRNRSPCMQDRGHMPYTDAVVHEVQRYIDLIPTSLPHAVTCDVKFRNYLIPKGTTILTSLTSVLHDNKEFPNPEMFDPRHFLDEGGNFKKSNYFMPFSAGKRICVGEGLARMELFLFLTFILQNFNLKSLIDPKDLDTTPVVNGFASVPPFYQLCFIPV
measured-attribute: IC50

Requested read-out: IC50. Entry: CCCS(=O)(=O)N1CCN(C2(CNC(=O)c3c(F)cccc3F)CCC(F)(F)CC2)CC1
> 10 µM

----------
- method: Ratio of drug uptake in brain to plasma in rat at 10 to 75 mg/kg, po after 30 mins
- Format: ADME, organism-based
- Parameters: dose 10-75 mg/kg, route oral
- assay-conditions: read-out: BPR
measured-attribute: Kp at 0.5 h

Requested read-out: Kp at 0.5 h. Entry: CCCS(=O)(=O)N1CCN(C2(CNC(=O)c3c(F)cccc3F)CCC(F)(F)CC2)CC1
0.13

----------
- method: Metabolic stability in human liver microsomes assessed as compound remaining at 10 uM after 60 mins
- Assay type: ADME, Microsome
- assay-conditions: read-out: Stability
measured-attribute: remaining at 1 h, 10 µM (%)
Provide the reading as a plain figure in %.

Requested read-out: remaining at 1 h, 10 µM. Entry: CCCS(=O)(=O)N1CCN(C2(CNC(=O)c3c(F)cccc3F)CCCCC2)CC1
16

Another compound to check: CCCS(=O)(=O)N1CCN(C2(CNC(=O)c3ccc(Cl)cc3)CCCCC2)CC1
4

Another compound to check: CCCS(=O)(=O)N1CCN(C2(CNC(=O)c3ccc(Cl)c(Cl)c3)CCCCC2)CC1
5

Another compound to check: CCCS(=O)(=O)N1CCN(C2(CNC(=O)c3c(Cl)cccc3Cl)CCCCC2)CC1
3

Another compound to check: CCCS(=O)(=O)N1CCN(C2(CNC(=O)c3c(F)cccc3F)CCC(F)(F)CC2)CC1
64

Another compound to check: CCCS(=O)(=O)N1CCN(C2(CNC(=O)c3c(OC)cc(F)cc3SC)CCCCC2)CC1
1

Another compound to check: CCCS(=O)(=O)N1CCN(C2(CNC(=O)c3cccc(C(F)(F)F)c3Cl)CCCCC2)CC1
1

Another compound to check: CCCS(=O)(=O)N1CCN(C2(CNC(=O)c3ccc(Cl)cc3Cl)CCCCC2)CC1
11

Another compound to check: CCCS(=O)(=O)N1CCN(C2(CNC(=O)c3ccc(OC(F)(F)F)cc3)CCCCC2)CC1
11
